target: Cyclin-dependent kinase 1/cyclin B1 (Homo sapiens, UniProt P06493)
Sequence (P06493 whole entry, the tested form may be a part): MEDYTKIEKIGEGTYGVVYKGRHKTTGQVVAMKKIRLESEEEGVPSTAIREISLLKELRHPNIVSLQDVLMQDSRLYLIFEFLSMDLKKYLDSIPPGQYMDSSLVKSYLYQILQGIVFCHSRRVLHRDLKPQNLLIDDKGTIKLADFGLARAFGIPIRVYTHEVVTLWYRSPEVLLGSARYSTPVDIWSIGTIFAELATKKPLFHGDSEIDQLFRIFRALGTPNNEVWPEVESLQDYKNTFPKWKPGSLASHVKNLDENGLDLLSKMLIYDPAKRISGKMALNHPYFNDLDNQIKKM
Sequence (P14635 whole entry, further chain, the tested form may be a part): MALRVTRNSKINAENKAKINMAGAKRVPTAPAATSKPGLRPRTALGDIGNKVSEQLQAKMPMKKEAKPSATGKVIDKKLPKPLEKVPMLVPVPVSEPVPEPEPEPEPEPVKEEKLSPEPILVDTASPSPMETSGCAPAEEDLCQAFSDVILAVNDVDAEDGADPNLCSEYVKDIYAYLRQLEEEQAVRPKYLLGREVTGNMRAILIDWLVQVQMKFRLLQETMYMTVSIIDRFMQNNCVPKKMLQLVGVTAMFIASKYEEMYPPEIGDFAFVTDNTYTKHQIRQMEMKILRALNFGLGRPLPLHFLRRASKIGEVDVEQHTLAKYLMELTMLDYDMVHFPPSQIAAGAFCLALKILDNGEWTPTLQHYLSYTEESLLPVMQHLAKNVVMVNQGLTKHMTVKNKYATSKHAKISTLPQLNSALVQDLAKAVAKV
assay_summary: Inhibition of recombinant CDK1/GST-fused cyclin B (unknown origin) expressed in baculovirus infected insect Sf9 cells by substrate phosphorylation assay in presence of [33P]-gamma adenosine triphosphate
pIC50: −log10 of the molar value.
quantity_name: pIC50

compound: C#CCNc1nc(Nc2ccccc2)ncc1Br
pIC50: 7.00

compound: C[C@H](CO)Nc1nc(Nc2ccc(S(N)(=O)=O)cc2)ncc1Br
pIC50: 6.30

compound: CC[S@@](=N)(=O)c1ccc(Nc2ncc(Br)c(N[C@H](C)[C@@H](C)O)n2)cc1
pIC50: 8.52

(a) C[C@@H](O)[C@@H](C)Nc1nc(Nc2ccc([S+](N)[O-])cc2)ncc1Br (stereo not given in full)
(b) C[C@@H](O)[C@@H](C)Oc1nc(Nc2ccc([S+](N)[O-])cc2)ncc1Br (stereo not given in full)
Which record would sort first by descending pIC50, a or b ? Write down the label of the entry you select.
b

---

Test system: MCF7
assay_summary: Cytotoxicity against human MCF7 cells assessed as growth inhibition after 96 hrs
Type: functional, cell-based
run_conditions: MCF7, 96 h
quantity_name: IC50 (nM)
Number in nM, nothing else.

Use these answered entries as a reference point.
compound: C[C@@H](O)[C@@H](C)Oc1nc(Nc2ccc([S+](N)[O-])cc2)ncc1Br (stereo partly specified)
IC50 [nM]: 48
--
compound: C#CCNc1nc(Nc2ccccc2)ncc1Br
IC50 [nM]: 4000
--
compound: C[C@@H](O)[C@@H](C)Nc1nc(Nc2ccc([S+](N)[O-])cc2)ncc1Br (stereo partly specified)
IC50 [nM]: 30
--
compound: C[C@@H](O)[C@@H](C)Oc1nc(Nc2ccc(S(=N)(=O)C3CC3)cc2)ncc1C(F)(F)F (stereo partly specified) [RONICICLIB]
IC50 [nM]: 15
--
compound: C[C@H](CO)Nc1nc(Nc2ccc(S(N)(=O)=O)cc2)ncc1Br
IC50 [nM]: 266

Give IC50 for the following compound: "CC[S@@](=N)(=O)c1ccc(Nc2ncc(Br)c(N[C@H](C)[C@@H](C)O)n2)cc1"
44

---

assay_summary: Chemical stability of the compound in phosphate buffer assessed as remaining compound at pH 1.2 at 37 degC after 3 hrs
Format: physicochemical
run_conditions: read-out: Stability
quantity_name: remaining at 3 h (%)

molecule: CC(C)(C)c1cc2c(N/N=C/c3nccs3)ncnc2s1
endpoint_result: 79

molecule: CC(N)c1csc(/C=N/Nc2ncnc3sc(C(C)C(C)C)cc23)n1 (stereo not drawn)
endpoint_result: 83

molecule: CC(N)c1csc(/C=N/Nc2ncnc3sc(C(C)(C)C)cc23)n1 (stereo not drawn)
endpoint_result: 81
